# measured-on: CDK9/CycT1 (Homo sapiens)
# Construct: Recombinant full-length His-tagged human CDK9 and CycT1; purchased Life Technologies PV4131; host or cells: insect cells
# Sequence (P50750 whole entry): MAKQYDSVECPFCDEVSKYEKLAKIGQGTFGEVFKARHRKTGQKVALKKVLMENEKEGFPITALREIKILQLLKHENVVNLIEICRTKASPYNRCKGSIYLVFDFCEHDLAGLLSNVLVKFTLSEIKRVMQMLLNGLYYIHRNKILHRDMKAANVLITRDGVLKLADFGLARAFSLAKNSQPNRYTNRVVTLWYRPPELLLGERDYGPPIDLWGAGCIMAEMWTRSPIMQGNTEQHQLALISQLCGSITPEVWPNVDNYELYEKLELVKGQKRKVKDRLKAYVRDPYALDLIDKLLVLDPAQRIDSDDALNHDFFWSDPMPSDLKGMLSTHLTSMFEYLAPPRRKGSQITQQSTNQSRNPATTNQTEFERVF
# Sequence (O60563 whole entry partner): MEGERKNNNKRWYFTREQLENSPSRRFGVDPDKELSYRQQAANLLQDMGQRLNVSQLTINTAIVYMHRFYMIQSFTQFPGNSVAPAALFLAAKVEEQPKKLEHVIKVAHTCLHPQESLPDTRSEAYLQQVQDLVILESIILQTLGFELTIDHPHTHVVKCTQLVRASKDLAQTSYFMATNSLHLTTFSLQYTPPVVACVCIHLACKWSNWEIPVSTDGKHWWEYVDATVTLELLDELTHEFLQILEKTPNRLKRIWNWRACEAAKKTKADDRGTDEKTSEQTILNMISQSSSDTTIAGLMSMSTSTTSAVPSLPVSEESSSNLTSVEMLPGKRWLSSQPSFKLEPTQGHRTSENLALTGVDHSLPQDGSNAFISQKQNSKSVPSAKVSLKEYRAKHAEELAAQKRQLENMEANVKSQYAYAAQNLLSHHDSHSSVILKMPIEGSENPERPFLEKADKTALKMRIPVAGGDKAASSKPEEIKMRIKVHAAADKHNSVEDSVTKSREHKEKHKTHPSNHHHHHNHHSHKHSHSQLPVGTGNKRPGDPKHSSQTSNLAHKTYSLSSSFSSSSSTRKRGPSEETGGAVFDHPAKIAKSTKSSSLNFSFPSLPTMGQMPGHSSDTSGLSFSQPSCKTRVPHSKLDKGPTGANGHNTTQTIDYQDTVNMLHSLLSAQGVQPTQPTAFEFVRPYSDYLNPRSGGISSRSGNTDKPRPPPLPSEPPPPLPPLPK
# assay-comment: CDK9/CycT1 high ATP kinase assay (TR-FRET, 2 mM ATP)
# Format: biochemical
# condition-description: 2 mM ATP (high ATP); median; read-out: CDK9/CyclinT1, 2 mM ATP (high ATP), IC50 (median)
pIC50: −log10 of the molar value.
Assignment: determine reported pIC50 for the given compounds.

Example results:
1) CO[C@@H]1CCN(c2nc(NCc3nc4ccccc4[nH]3)n3ncc(Br)c3n2)C1 [Example 223] = < 4.70
2) Fc1cc2nc(CNc3nc(N4CCOCC4)nc4c(Br)cnn34)[nH]c2cc1F [Example 341] = 4.76
3) c1ccc2[nH]c(CNc3nc(N4CCOCC4)nc4c(C5CC5)cnn34)nc2c1 [Example 92] = < 4.70
4) Fc1cccc2[nH]c(CNc3nc(N4C[C@@H]5CCCN[C@@H]5C4)nc4c(C5CC5)cnn34)nc12 [Example 187] = < 4.70
5) COC1CCN(c2nc(NCc3nc4ccccc4[nH]3)n3ncc(Br)c3n2)CC1 [Example 62] = < 4.70
6) Clc1cc2nc(CNc3nc(N4CCOCC4)nc4c(-c5ccnnc5)cnn34)[nH]c2cc1Cl.O=C(O)C(F)(F)F [Example 440] = < 4.70

For each of the items listed, what is its pIC50?
1. CN1CCN(c2nc(NCc3nc4cc(Cl)c(Cl)cc4[nH]3)n3ncc(Br)c3n2)CC1 [Example 330]
2. Brc1cnn2c(NCc3ncc(-c4cccnc4)[nH]3)nc(N3CCOCC3)nc12 [Example 84]
3. Fc1cccc2[nH]c(CNc3nc(N4CCOCC4)nc4c(C(F)(F)F)cnn34)nc12 [Example 274]
4. CN1CCN(c2nc(NCc3nc4cc(F)c(F)cc4[nH]3)n3ncc(Br)c3n2)CC1 [Example 346]
5. Brc1cnn2c(NCc3nc4ccccc4[nH]3)nc(N3CCOCC3)nc12 [Example 4]
6. Fc1ccc2[nH]c(CNc3nc(N4CCNCC4)nc4c(C5CC5)cnn34)nc2c1 [Example 190]

Completion:
["< 4.70", 5.46, "< 4.70", "< 4.70", "< 4.70", "< 4.70"]

====

# measured-on: CDK2/CycE (Homo sapiens, UniProt P24941)
# assay-comment: CDK2/CycE kinase assay (TR-FRET, 2 mM ATP)
# condition-description: 2 mM ATP (high ATP); median; read-out: CDK2/CyclinE, 2 mM ATP (high ATP), IC50 (median)
reported-property: IC50

1) CN(C)[C@H]1CCN(c2nc(NCc3nc4ccccc4[nH]3)n3ncc(Br)c3n2)C1 = > 20 µM
2) Cc1ccccc1-c1cnc(CNc2nc(N3CCOCC3)nc3c(Br)cnn23)[nH]1 = 4.52 µM
3) CN1CCN(c2nc(NCc3nc4c(F)c(F)ccc4[nH]3)n3ncc(-c4nccs4)c3n2)CC1 = > 20 µM
4) Brc1cnn2c(NCc3nc4ccccc4[nH]3)nc(N3CC4CCNC4C3)nc12 (centres unmarked) = 10 µM
5) CC(C)c1cnn2c(NCc3nc4ccccc4[nH]3)nc(N(C)C)nc12 = > 20 µM

For every item below, please supply its IC50.
1. Fc1ccc(-c2nnc(CNc3nc(N4CCOCC4)nc4c(Br)cnn34)[nH]2)cc1F
2. OC[C@@H]1CCCCN1c1nc(NCc2nc3cc(F)ccc3[nH]2)n2ncc(C3CC3)c2n1
3. COC1CCN(c2nc(NCc3nc4ccccc4[nH]3)n3ncc(Br)c3n2)CC1

Completion:
1. 1.77 µM
2. 1.77 µM
3. 6.45 µM

Batch: IC50 for all items listed.
1. Clc1cc2nc(CNc3nc(N4CCOCC4)nc4c(-c5cncs5)cnn34)[nH]c2cc1Cl
2. C[C@@H]1CN(c2nc(NCc3nnc(-c4ccccc4)[nH]3)n3ncc(Br)c3n2)C[C@H](C)O1
3. Brc1cnn2c(NCc3nc4ccccc4[nH]3)nc(N3C[C@H]4CC[C@@H]3CO4)nc12 (single isomer, unassigned) [Example 383]
4. CN1CC2CN(c3nc(NCc4nc5ccccc5[nH]4)n4ncc(Br)c4n3)CC2C1 (centres unmarked)
5. CN(CC(C)(C)O)c1nc(NCc2nc3cc(F)c(Cl)cc3[nH]2)n2ncc(Br)c2n1
6. Brc1cnn2c(NCc3nc4ccccc4[nH]3)nc(N3CCCCC3)nc12

Completion:
1. > 20 µM
2. 4.28 µM
3. 3.95 µM
4. 15.5 µM
5. 6.57 µM
6. 1.85 µM
